Reference for the values: patent US20130143793A1

Reported hCCK-B R EC50 (p-ERK) values for a set of binders
assay_target: T1, human CCK-B receptor (human, UniProt P32239 1-447)
T1 sequence (looked up): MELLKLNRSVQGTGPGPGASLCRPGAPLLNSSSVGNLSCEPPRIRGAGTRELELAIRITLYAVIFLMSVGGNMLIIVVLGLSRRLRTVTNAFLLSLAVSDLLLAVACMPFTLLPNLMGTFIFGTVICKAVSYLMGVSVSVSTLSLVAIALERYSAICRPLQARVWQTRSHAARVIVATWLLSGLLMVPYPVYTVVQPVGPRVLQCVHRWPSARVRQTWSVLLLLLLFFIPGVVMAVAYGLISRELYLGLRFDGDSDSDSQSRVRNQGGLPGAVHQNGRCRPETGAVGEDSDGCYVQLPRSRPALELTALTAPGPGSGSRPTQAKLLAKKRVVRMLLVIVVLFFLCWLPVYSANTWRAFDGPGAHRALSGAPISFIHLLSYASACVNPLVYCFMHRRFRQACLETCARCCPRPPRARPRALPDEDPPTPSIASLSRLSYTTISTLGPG
assay_overview: cell-based or functional assay
Square brackets hold non-standard residues; d marks the D form. Ends that are not written are not given here. Orn = NCCC[C@H](N)C(=O)O
Answer with a number only, understood to be in nM.

Req: # query: hCCK-B R EC50 (p-ERK) of entry HGEGTFTSDLSKQLEEEAVRLFIEWLKNYGWLDX (3-(3-Pyridyl)-alanine at position 6 of the Gastrin6 moiety; C-terminal amide) [[Leu14]Exendin-4(1-28)-[Leu4,[3-(3-Pyridyl)-Ala]6]Gastrin6]
Resp: 20

Req: # query: hCCK-B R EC50 (p-ERK) of entry HGEGTFTSELSKYLEEEAVRLFIEFLK[Peg3][Orn]WLDF-NH2 [[Glu9,Leu14,Phe25,Tyr13]Exendin-4(1-27)-Peg3-Orn-[Leu2]Gastrin4]
Resp: 51

Req: # query: hCCK-B R EC50 (p-ERK) of entry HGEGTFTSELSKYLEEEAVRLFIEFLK[Peg3]YGWLDF-NH2 [[Glu9,Leu14,Phe25,Tyr13]Exendin-4(1-27)-Peg3-[Leu4]Gastrin6]
Resp: 54

Req: # query: hCCK-B R EC50 (p-ERK) of entry HGEGTFTSDLSRYLEEEAVRLFIKFLR[Peg3]YGWLDF-NH2 [[Arg12,27,Leu14,Lys24,Phe25,Tyr13]Exendin-4(1-27)-Peg3-[Leu4]Gastrin6]
Resp: 36

Req: # query: hCCK-B R EC50 (p-ERK) of entry HGEGTFTSDLSKQMEKEAVRLFIEWLKN[Peg3][Peg3]YGWLDF-NH2 [[Lys16]Exendin-4(1-28)-Peg3-Peg3-[Leu4]Gastrin6]
Resp: 15
